Recorded values, source patent US20240391954A1.

targetDesc: human MC4R receptor (human, UniProt P32245 1-332)
Sequence (P32245 whole entry): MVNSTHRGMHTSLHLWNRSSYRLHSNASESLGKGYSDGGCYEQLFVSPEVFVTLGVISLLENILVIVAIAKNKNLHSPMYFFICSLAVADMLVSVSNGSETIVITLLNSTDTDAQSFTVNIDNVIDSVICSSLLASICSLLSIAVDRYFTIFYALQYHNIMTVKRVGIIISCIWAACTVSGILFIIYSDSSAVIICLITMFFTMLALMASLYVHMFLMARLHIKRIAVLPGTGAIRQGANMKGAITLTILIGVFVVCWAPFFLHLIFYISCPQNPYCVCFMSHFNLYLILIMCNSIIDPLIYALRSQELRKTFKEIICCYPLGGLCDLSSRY
assayProtocol: cell-based or functional assay
Positions of bridges follow the written chain, without caps; N, C: chain ends. Non-standard residues stand in square brackets, D forms with d. d1Nal = N[C@H](Cc1cccc2ccccc12)C(=O)O; Cit = NC(=O)NCCC[C@H](N)C(=O)O; Nle = CCCC[C@H](N)C(=O)O; Aib = CC(C)(N)C(=O)O
Label true when MC4R selectivity vs MC1R < 4; otherwise false.

Is 4 strictly greater than the binder's reported MC4R selectivity vs MC1R? binder: {CH2CO}-[dA][Cit][dF]RWC-NH2 (thioether N-6; SMILES C[C@H]1NC(=O)CSC[C@@H](C(N)=O)NC(=O)[C@H](Cc2c[nH]c3ccccc23)NC(=O)[C@H](CCCNC(=N)N)NC(=O)[C@@H](Cc2ccccc2)NC(=O)[C@H](CCCNC(N)=O)NC1=O) [CTX-1643]
false

Is 4 strictly greater than the binder's reported MC4R selectivity vs MC1R? binder: Ac-RCA[Cit][dF]RWC-NH2 (disulfide 2-8) [CTX-1287]
false

Is 4 strictly greater than the binder's reported MC4R selectivity vs MC1R? binder: Ac-R[Nle]CR[d1Nal]RWC-NH2 (disulfide 3-8; SMILES CCCC[C@H](NC(=O)[C@H](CCCNC(=N)N)NC(C)=O)C(=O)N[C@H]1CSSC[C@@H](C(N)=O)NC(=O)[C@H](Cc2c[nH]c3ccccc23)NC(=O)[C@H](CCCNC(=N)N)NC(=O)[C@@H](Cc2cccc3ccccc23)NC(=O)[C@H](CCCNC(=N)N)NC1=O) [CTX-1611]
true

Is 4 strictly greater than the binder's reported MC4R selectivity vs MC1R? binder: Ac-RC[dA]R[dF]R[dF]C-NH2 (disulfide 2-8; SMILES CC(=O)N[C@@H](CCCNC(=N)N)C(=O)N[C@H]1CSSC[C@@H](C(N)=O)NC(=O)[C@@H](Cc2ccccc2)NC(=O)[C@H](CCCNC(=N)N)NC(=O)[C@@H](Cc2ccccc2)NC(=O)[C@H](CCCNC(=N)N)NC(=O)[C@@H](C)NC1=O) [CTX-1265]
true

Is 4 strictly greater than the binder's reported MC4R selectivity vs MC1R? binder: Ac-RCA[Cit][dF]R[dW]C-NH2 (disulfide 2-8) [CTX-1288]
true

Is 4 strictly greater than the binder's reported MC4R selectivity vs MC1R? binder: Ac-RC[Aib]R[dF][Cit]WC-NH2 (disulfide 2-8) [CTX-1270]
true
